Test: xn = mol fraction of the nth substance listed, in the solute-free solvent
Settings: 303.15 K; x2 = 0.1666
Values of solubility (g/100 g solution) greater than or equal to 2 map to MET; values below map to NOT MET.

Use the examples below as a reference point.
# molecule, qualitative.label
records = [
    ("COC(=O)C1=C(C)NC(C)=C(C(=O)OCC(C)C)C1c1ccccc1[N+](=O)[O-] (stereo not given) + CCCO + O", "MET"),
    ("CC(=O)Nc1ccc(OC(=O)c2ccccc2OC(C)=O)cc1 + CC(C)O + O", "NOT MET"),
    ("COC(=O)C1=C(C)NC(C)=C(C(=O)OCC(C)C)C1c1ccccc1[N+](=O)[O-] (stereo not given) + CC(C)O + O", "MET"),
    ("CS(=O)(=O)c1ccc(C(O)C(CF)NC(=O)C(Cl)Cl)cc1 (stereo not given) + CC(C)O + O", "NOT MET"),
]

Proceed to the following item.
Hi team, for O=[N+]([O-])c1cc[nH]n1 + CCCO + O , is the recorded solubility (g/100 g solution) at or above 2? MET

---

Experiment: xn = mol fraction of the nth substance listed, in the solute-free solvent
Settings: 293.15 K; x2 = 0.1139
readout: solubility (g/100 g solution)
A bare number is all that is needed in reply.

Take a look at these entries with their results.
# compound, solubility (g/100 g solution)
data = [
    ("O=[N+]([O-])c1cc[nH]n1 + CCCO + O", 0.945),
    ("CC(=O)Nc1ccc(OC(=O)c2ccccc2OC(C)=O)cc1 + CC(C)O + O", 0.0402),
    ("CS(=O)(=O)c1ccc(C(O)C(CF)NC(=O)C(Cl)Cl)cc1 (centres undefined) + CC(C)O + O", 0.379),
]

Query (compound): COC(=O)C1=C(C)NC(C)=C(C(=O)OCC(C)C)C1c1ccccc1[N+](=O)[O-] (centres undefined) + CCCO + O ; field requested: solubility (g/100 g solution) 1.81

---

Assay: xn = mol fraction of the nth substance listed, in the solute-free solvent
Conditions: 298.15 K; x2 = 0.2068
Items are presented alongside their recorded solubility (g/100 g solution).
A bare number is all that is needed in reply.

Take a look at these entries with their results.
# compound, readout, reading
rows = [
    ("CC(=O)Nc1ccc(OC(=O)c2ccccc2OC(C)=O)cc1 + CCO + O", "solubility (g/100 g solution)", 0.127),
    ("COC(=O)C1=C(C)NC(C)=C(C(=O)OCC(C)C)C1c1ccccc1[N+](=O)[O-] (centres undefined) + CCO + O", "solubility (g/100 g solution)", 2.73),
    ("CS(=O)(=O)c1ccc(C(O)C(CF)NC(=O)C(Cl)Cl)cc1 (centres undefined) + CCO + O", "solubility (g/100 g solution)", 1.42),
]

Continue with the next compound.
Query (compound): O=[N+]([O-])c1cc[nH]n1 + CCO + O ; field requested: solubility (g/100 g solution) 0.956

---

Experiment: xn = mol fraction of the nth substance listed, in the solute-free solvent
Conditions: 313.15 K; x2 = 0.08908
readout: solubility (g/100 g solution)
A bare number is all that is needed in reply.

# compound, solubility (g/100 g solution)
data = [
    ("COC(=O)C1=C(C)NC(C)=C(C(=O)OCC(C)C)C1c1ccccc1[N+](=O)[O-] (centres undefined) + CCO + O", 1.68),
    ("CS(=O)(=O)c1ccc(C(O)C(CF)NC(=O)C(Cl)Cl)cc1 (centres undefined) + CCO + O", 1.33),
    ("CC(=O)Nc1ccc(OC(=O)c2ccccc2OC(C)=O)cc1 + CCO + O", 0.0839),
]

Continue with the next compound.
Query (compound): O=[N+]([O-])c1cc[nH]n1 + CCO + O ; field requested: solubility (g/100 g solution) 1.15

The origin of these recorded values is the CheMixHub drug solubility set.
